Test system: Escherichia coli TOP10;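 note: peptides expressed intracellularly from a pBAD plasmid library in pooled LB shake-flask culture, induced with 0.3% L-arabinose, DNA abundance read by NGS, three biological replicates, DESeq2 with apeglm shrinkage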
procedure.summary: shrunken log2 fold change of peptide-encoding DNA abundance (4.5 h post-induction vs induction); higher = less antimicrobial activity (less host growth inhibition)
condition.context: time post-induction: 4.5 h; library: site-saturation at positions 5, 18, 19, 20
# shrunken log2 fold change binned as lower range = under 0.06, middle range = from 0.06 up to 0.3, upper range = 0.3 and over

Input RRIRPRPPRLPRPRPRPMWAPRP ; output its category
lower range

Input RRIRFRPPRLPRPRPRPYQYPRP ; output its category
middle range

Input RRIRPRPPRLPRPRPRPELGPRP ; output its category
middle range

Input RRIRRRPPRLPRPRPRPNRAPRP ; output its category
upper range

Input RRIRDRPPRLPRPRPRPPLRPRP ; output its category
middle range

Input RRIRRRPPRLPRPRPRPCNMPRP ; output its category
lower range

Input RRIRTRPPRLPRPRPRPACIPRP ; output its category
upper range

Input RRIRCRPPRLPRPRPRPQEVPRP ; output its category
middle range

Input RRIRFRPPRLPRPRPRPGCEPRP ; output its category
middle range

Input RRIRLRPPRLPRPRPRPHHWPRP ; output its category
lower range

Input RRIRARPPRLPRPRPRPMQGPRP ; output its category
upper range

Input RRIRIRPPRLPRPRPRPQAEPRP ; output its category
middle range

Input RRIRMRPPRLPRPRPRPEWCPRP ; output its category
middle range

Input RRIRIRPPRLPRPRPRPSAEPRP ; output its category
lower range
